FYI, the data here is from paper PMC4052546.

Could you please report measured AUC(0-t) for the items listed next?
Test: Pharmacokinetics of AS and DHA in rat plasma after single and multiple intravenous AS injections (automated blood sampler, LC-MS/MS);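 note: blood drawn through a jugular vein catheter by an automated sampling system, plasma drug levels measured by LC-MS/MS with positive electrospray ionization against standard curves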
Type: in vivo, Sprague-Dawley rats
Conditions: male, Sprague-Dawley, rat, plasma, iv, 20 mg/kg, WRAIR formulation (AS/0.3M PBS Buffer), 20 mg/kg i.v. daily for 3 days, male rats, Period 1, Day 3; read-out: AUC0–3 h
# output: bare number, implied unit ng·h/mL

Reported AUC(0-t) of C[C@H]1[C@H](OC(=O)CCC(=O)O)O[C@@H]2O[C@@]3(C)CC[C@H]4[C@H](C)CC[C@@H]1[C@@]24OO3 [AS, artesunate] : 611

Measured AUC(0-t) of C[C@H]1[C@@H](O)O[C@@H]2O[C@@]3(C)CC[C@H]4[C@H](C)CC[C@@H]1[C@@]24OO3 [DHA, dihydroartemisinin] : 1100
